Experiment: qHTS assay to identify small molecule that activate the aryl hydrocarbon receptor (AhR) signaling pathway - cell viability counter screen (AID 743086);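 note: HepG2 liver cells carrying the AhR DRE luciferase reporter; nearly all actives have a fitted effect of over 45% in size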
Settings: HepG2-AhR-luc viability, CellTiter-Fluor, 24 h; series mostly up to 70.3 µM
Inconclusive results are not listed. Active and inactive are the calls of the source. Calls come from the whole dose curve; as a rule, active = well fitted cell-killing curve with a large enough effect in the repeat runs; inconclusive = weak or mixed curves, or effect the other way; inactive = flat fitted curve, though single readings scatter.
quantityName: outcome

INSERT INTO measurements (compound, valueobserved) VALUES
  ('CC[C@@H]1C[C@H](N(Cc2cc(C(F)(F)F)cc(C(F)(F)F)c2)C(C)=O)c2cc(C(F)(F)F)ccc2N1C(=O)OC(C)C', 'inactive'),
  ('Nc1nc(CC(=O)O)cs1', 'inactive'),
  ('C1=Cc2ccccc2C1', 'inactive'),
  ('C=C(C)C(=O)OC(C)C', 'inactive'),
  ('O=C(NS(=O)(=O)/C=C/c1cccs1)c1ccc(F)cc1Br', 'inactive'),
  ('NCCCN(CCO)CCO', 'inactive'),
  ('O=C(/C=C/c1ccc(O)c(O)c1)O[C@@H]1C[C@](O)(C(=O)O)C[C@@H](O)[C@H]1O', 'inactive'),
  ('C=CC(=O)OCC(C)OCC(C)OCC(C)OC(=O)C=C (stereo not drawn)', 'inactive'),
  ('CC(O)C1CCCCC1 (stereo not drawn)', 'inactive'),
  ('CC1(C)CCC(C)(C)c2cc(NC(=O)c3ccc(C(=O)O)cc3)ccc21', 'inactive'),
  ('O=C(C(=O)c1ccc(Br)cc1)c1ccc(Br)cc1', 'inactive'),
  ('CCCCCCCCCCCCCCC1CO1 (stereo not drawn)', 'inactive'),
  ('C=CCCCCCC', 'inactive'),
  ('CC(=O)SCc1ccco1', 'inactive'),
  ('CCCCCC/C=C/C=O', 'inactive'),
  ('CCC(C)N(C)C(=O)c1cc2ccccc2c(-c2ccccc2Cl)n1 (stereo not drawn)', 'inactive'),
  ('S=C(S)NCCNC(=S)S', 'inactive'),
  ('Cn1sccc1=O', 'inactive'),
  ('CCOC(=O)C1=C(C)NC(C)=C(C(=O)OC)C1c1cccc([N+](=O)[O-])c1 (stereo not drawn)', 'inactive'),
  ('CC(C)(C)c1cc(CO)cc(C(C)(C)C)c1O', 'inactive'),
  ('CCCCOc1cc(C(=O)OCCN(CC)CC)ccc1N', 'inactive'),
  ('O=[N+]([O-])c1cccc(Cl)c1Cl', 'inactive'),
  ('NC(N)=N/N=C/c1c(Cl)cccc1Cl', 'inactive'),
  ('CC(C)(C)c1cc(O)c(C(C)(C)C)cc1O', 'inactive'),
  ('COC(=O)C(C)=O', 'inactive'),
  ('CCCC(=O)OCC', 'inactive'),
  ('O=C(O)Cc1sc(-c2ccccc2)nc1-c1ccc(Cl)cc1', 'inactive'),
  ('CC/C(=C\C(=N/O)C(N)=O)C(C)[N+](=O)[O-] (stereo not drawn)', 'inactive');
